In this section, each of the molecules is paired with its reported 5-HT/DA potency ratio.
system: serotonin (5-HT) transporter (Rattus norvegicus, UniProt P31652)
Construct: from tissue; host or cells: rat frontal cortex
Sequence (P31652 whole entry): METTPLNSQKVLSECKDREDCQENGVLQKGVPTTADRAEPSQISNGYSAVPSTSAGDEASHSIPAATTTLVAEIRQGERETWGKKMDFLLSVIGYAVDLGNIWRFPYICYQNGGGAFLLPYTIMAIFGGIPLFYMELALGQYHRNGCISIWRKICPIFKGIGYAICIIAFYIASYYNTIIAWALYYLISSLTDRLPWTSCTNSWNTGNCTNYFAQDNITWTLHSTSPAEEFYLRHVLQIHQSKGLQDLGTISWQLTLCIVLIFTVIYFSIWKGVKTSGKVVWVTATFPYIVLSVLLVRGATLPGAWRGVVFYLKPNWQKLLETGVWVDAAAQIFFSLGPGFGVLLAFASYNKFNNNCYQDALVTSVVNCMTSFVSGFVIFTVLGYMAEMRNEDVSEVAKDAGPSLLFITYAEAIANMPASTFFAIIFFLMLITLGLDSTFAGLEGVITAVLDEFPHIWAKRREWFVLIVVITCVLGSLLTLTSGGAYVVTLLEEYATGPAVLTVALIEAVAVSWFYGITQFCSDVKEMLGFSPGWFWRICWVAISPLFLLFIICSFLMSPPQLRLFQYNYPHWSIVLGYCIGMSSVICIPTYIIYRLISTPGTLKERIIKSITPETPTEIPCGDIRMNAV
test.summary: displacement of [3H]paroxetine binding to 5-HT transporter
test.parameters: selectivity for 5-HT over DA transporter
Provide a numeric answer; units are not to be included.

Example molecules with recorded 5-HT/DA potency ratio:
1) C=C(CC)c1ccc([C@H]2C[C@@H]3CC[C@H]([C@H]2C(=O)CC)N3C)cc1 : 20
2) CCC(=O)[C@H]1[C@@H](c2ccc(/C=C/I)cc2)C[C@@H]2CC[C@H]1N2 (relative stereo) : 83
3) C=C(C)c1ccc([C@H]2C[C@@H]3CC[C@@H](N3)[C@H]2C(=O)CC)cc1 (relative stereo) : 150
4) C=C(C)c1ccc([C@H]2C[C@@H]3CC[C@H]([C@H]2C(=O)CC)N3C)cc1 (relative stereo) : 8.8
5) CCC(=O)[C@H]1[C@@H](c2ccc(-c3cccn3C)cc2)C[C@@H]2CC[C@H]1N2 (relative stereo) : 590
6) CCC(=O)[C@H]1[C@@H](c2ccc(-c3cccn3C)cc2)C[C@@H]2CC[C@H]1N2C (relative stereo) : 24

[in] What value of 5-HT/DA potency ratio has been reported for the following molecule? CCC(=O)[C@H]1[C@@H](c2ccc(/C=C(/C)I)cc2)C[C@@H]2CC[C@H]1N2 (relative stereo)
[out] 507

----------
system: serotonin (5-HT) transporter (Rattus norvegicus, UniProt P31652)
Construct: from tissue; host or cells: rat frontal cortex
test.summary: displacement of [3H]paroxetine binding to 5-HT transporter
test.parameters: selectivity for 5-HT over NE transporter
assay.endpoint: 5-HT/NE potency ratio
Provide a numeric answer; units are not to be included.

1) C=C(C)c1ccc([C@H]2C[C@@H]3CC[C@H]([C@H]2C(=O)CC)N3C)cc1 (relative stereo) : 970

[in] What value of 5-HT/NE potency ratio has been reported for the following compound? CCC(=O)[C@H]1[C@@H](c2ccc(/C=C/I)cc2)C[C@@H]2CC[C@H]1N2 (relative stereo)
[out] 80

[in] What value of 5-HT/NE potency ratio has been reported for the following compound? C=C(C)c1ccc([C@H]2C[C@@H]3CC[C@@H](N3)[C@H]2C(=O)CC)cc1 (relative stereo)
[out] 850

[in] What value of 5-HT/NE potency ratio has been reported for the following compound? `C=C(CC)c1ccc([C@H]2C[C@@H]3CC[C@H]([C@H]2C(=O)CC)N3C)cc1`
[out] 1000

[in] What value of 5-HT/NE potency ratio has been reported for the following compound? CCC(=O)[C@H]1[C@@H](c2ccc(/C=C(/C)I)cc2)C[C@@H]2CC[C@H]1N2 (relative stereo)
[out] 509

[in] What value of 5-HT/NE potency ratio has been reported for the following compound? `C/C=C/c1ccc([C@H]2C[C@@H]3CC[C@H]([C@H]2C(=O)CC)N3C)cc1`
[out] 250

[in] What value of 5-HT/NE potency ratio has been reported for the following compound? CC=Cc1ccc(C2CC3CCC(N3)C2C(=O)CC)cc1 (stereo not drawn)
[out] 108

[in] What value of 5-HT/NE potency ratio has been reported for the following compound? CCC(=O)[C@H]1[C@@H](c2ccc(/C=C(\C)I)cc2)C[C@@H]2CC[C@H]1N2 (relative stereo)
[out] 645

----------
system: serotonin (5-HT) transporter (Rattus norvegicus)
Construct: from tissue; host or cells: rat frontal cortex
test.summary: displacement of [3H]paroxetine binding to 5-HT transporter
test.parameters: [3H]paroxetine, rat frontal cortex
In this section, each of the compounds is paired with its reported pKi.
Units for pKi: none; it is -log10 of a concentration expressed in mol/L.

1. CCC(=O)[C@H]1[C@@H](c2ccc(-c3cccn3C)cc2)C[C@@H]2CC[C@H]1N2 (relative stereo) [Example 4] : 8.98
2. CCC(=O)[C@H]1[C@@H](c2ccc(C=C(C)C)cc2)C[C@@H]2CC[C@H]1N2C (relative stereo) [Example 5] : 8.04

Now take the following compound into account.
[in] What value of pKi has been reported for the following compound? CCC(=O)[C@H]1[C@@H](c2ccc(-c3cccn3C)cc2)C[C@@H]2CC[C@H]1N2C (relative stereo) [Example 3]
[out] 7.59

----------
system: serotonin (5-HT) transporter (Rattus norvegicus)
Construct: from tissue; host or cells: rat frontal cortex
test.summary: displacement of [3H]paroxetine binding to 5-HT transporter
test.parameters: selectivity for 5-HT over NE transporter
assay.endpoint: 5-HT/NE potency ratio

Example compounds with recorded 5-HT/NE potency ratio:
1. CCC(=O)[C@H]1[C@@H](c2ccc(-c3cccn3C)cc2)C[C@@H]2CC[C@H]1N2C (relative stereo) : > 15,000
2. CCC(=O)[C@H]1[C@@H](c2ccc(C=C(C)C)cc2)C[C@@H]2CC[C@H]1N2 (relative stereo) : 3097
3. C=C(CC)c1ccc(C2CC3CCC(N3)C2C(=O)CC)cc1 (stereo not shown) : 1790

Now take the following compound into account.
[in] What value of 5-HT/NE potency ratio has been reported for the following compound? CCC(=O)[C@H]1[C@@H](c2ccc(C=C(C)C)cc2)C[C@@H]2CC[C@H]1N2C (relative stereo)
[out] 448

----------
system: dopamine (DA) transporter (Rattus norvegicus, UniProt P23977)
Sequence (P23977 whole entry): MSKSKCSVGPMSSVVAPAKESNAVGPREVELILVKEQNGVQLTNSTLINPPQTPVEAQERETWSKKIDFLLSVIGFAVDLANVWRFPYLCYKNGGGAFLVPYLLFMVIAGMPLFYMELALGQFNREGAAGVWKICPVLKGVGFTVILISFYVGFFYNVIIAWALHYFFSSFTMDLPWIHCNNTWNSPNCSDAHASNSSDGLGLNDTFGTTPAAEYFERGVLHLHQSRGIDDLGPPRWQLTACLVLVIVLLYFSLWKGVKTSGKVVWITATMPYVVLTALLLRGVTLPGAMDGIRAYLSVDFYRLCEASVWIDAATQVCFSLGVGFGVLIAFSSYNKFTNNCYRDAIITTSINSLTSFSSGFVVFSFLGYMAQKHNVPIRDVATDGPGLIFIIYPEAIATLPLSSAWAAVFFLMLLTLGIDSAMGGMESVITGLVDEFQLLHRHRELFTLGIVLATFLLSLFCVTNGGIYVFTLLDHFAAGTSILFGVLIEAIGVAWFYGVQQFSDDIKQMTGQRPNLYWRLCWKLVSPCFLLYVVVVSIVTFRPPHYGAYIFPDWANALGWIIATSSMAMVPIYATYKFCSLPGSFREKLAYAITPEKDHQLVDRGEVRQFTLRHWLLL
assay.endpoint: IC50 (nM)
Respond numerically; units are nM and should not be typed.

1. C=C(CC)c1ccc([C@H]2C[C@@H]3CC[C@H]([C@H]2C(=O)CC)N3C)cc1 [Example 7] : 22.1

[in] What value of IC50 has been reported for the following molecule? CC=Cc1ccc(C2CC3CCC(N3)C2C(=O)CC)cc1 (stereo not shown) [Example 10]
[out] 1.94

[in] What value of IC50 has been reported for the following molecule? CCC(=O)[C@H]1[C@@H](c2ccc(-c3cccn3C)cc2)C[C@@H]2CC[C@H]1N2C (relative stereo) [Example 3]
[out] 703

[in] What value of IC50 has been reported for the following molecule? CCC(=O)[C@H]1[C@@H](c2ccc(C=C(C)C)cc2)C[C@@H]2CC[C@H]1N2C (relative stereo) [Example 5]
[out] 51.3

[in] What value of IC50 has been reported for the following molecule? CCC(=O)[C@H]1[C@@H](c2ccc(/C=C(/C)I)cc2)C[C@@H]2CC[C@H]1N2 (relative stereo) [Example 13]
[out] 66.5

[in] What value of IC50 has been reported for the following molecule? CCC(=O)[C@H]1[C@@H](c2ccc(/C=C(\C)I)cc2)C[C@@H]2CC[C@H]1N2 (relative stereo) [Example 12]
[out] 401

[in] What value of IC50 has been reported for the following molecule? C=C(C)c1ccc([C@H]2C[C@@H]3CC[C@@H](N3)[C@H]2C(=O)CC)cc1 (relative stereo) [Example 2]
[out] 16

[in] What value of IC50 has been reported for the following molecule? C=C(CC)c1ccc(C2CC3CCC(N3)C2C(=O)CC)cc1 (stereo not shown) [Example 8]
[out] 37.9

[in] What value of IC50 has been reported for the following molecule? C/C=C/c1ccc([C@H]2C[C@@H]3CC[C@H]([C@H]2C(=O)CC)N3C)cc1 [Example 9]
[out] 1.59

[in] What value of IC50 has been reported for the following molecule? CCC(=O)[C@H]1[C@@H](c2ccc(C=C(C)C)cc2)C[C@@H]2CC[C@H]1N2 (relative stereo) [Example 6]
[out] 96.3

[in] What value of IC50 has been reported for the following molecule? CCC(=O)[C@H]1[C@@H](c2ccc(-c3cccn3C)cc2)C[C@@H]2CC[C@H]1N2 (relative stereo) [Example 4]
[out] 614

[in] What value of IC50 has been reported for the following molecule? C=C(C)c1ccc([C@H]2C[C@@H]3CC[C@H]([C@H]2C(=O)CC)N3C)cc1 (relative stereo) [Example 1]
[out] 7.2

[in] What value of IC50 has been reported for the following molecule? CCC(=O)[C@H]1[C@@H](c2ccc(/C=C/I)cc2)C[C@@H]2CC[C@H]1N2 (relative stereo) [Example 11]
[out] 51.3

----------
Target or system norepinephrine (NE) transporter (Rattus norvegicus); recorded quantity pKi.
Units for pKi: none; it is -log10 of a concentration expressed in mol/L.

[in] GET /values?readout=pKi&system=norepinephrine (NE) transporter (Rattus norvegicus)&item= C=C(C)c1ccc([C@H]2C[C@@H]3CC[C@@H](N3)[C@H]2C(=O)CC)cc1 (relative stereo)
[out] 7.03

[in] GET /values?readout=pKi&system=norepinephrine (NE) transporter (Rattus norvegicus)&item= CCC(=O)[C@H]1[C@@H](c2ccc(C=C(C)C)cc2)C[C@@H]2CC[C@H]1N2 (relative stereo)
[out] 5.90

[in] GET /values?readout=pKi&system=norepinephrine (NE) transporter (Rattus norvegicus)&item= CCC(=O)[C@H]1[C@@H](c2ccc(/C=C(/C)I)cc2)C[C@@H]2CC[C@H]1N2 (relative stereo)
[out] 7.18
